System: Athelia rolfsii
test protocol: Antimicrobial activity against Athelia rolfsii assessed as growth inhibition at 10 ppm by agar dilution method
Format: functional
test conditions: Agroathelia rolfsii; read-out: GI
inhibition of growth at 10 ppm: recorded values
Give the number; % is assumed, so skip it.

CCOC(=O)/C=C/c1ccc(O)cc1 [ETHYL P-COUMARATE]
8
O=C(O)/C=C/c1ccccc1
24
CC(C)OC(=O)/C=C/c1ccc(O)cc1 [ISOPROPYL 3-(4-HYDROXYPHENYL)ACRYLATE]
10
CCCOC(=O)/C=C/c1ccc(O)cc1
9
CCCCOC(=O)/C=C/c1ccc(O)cc1
29

QUERY: Record request: inhibition of growth at 10 ppm value, item CC(C)OP(=O)(OC(C)C)SCc1ccccc1
RESULT: 69
